Tested on: MDA-MB-231 cells
EXPERIMENT_DESCRIPTION: Cell proliferation assay (label-free live cell counting), MDA-MB-231
Format: cell-based, human
TEST_CONTEXT: MDA-MB-231, 48 h of incubation, n = 4; read-out: IC50 in µM [95% CI]
METRIC_NAME: IC50 (µM)
One number for each entry, in µM.

• NCCCNCCCCNCCCN.[Cl][Pd][Cl].[Cl][Pd][Cl] [Pd2Spm, dinuclear palladium(II)-spermine chelate] = 7.9

Would you kindly look at the next entry?
## Input // query IC50 value for entry N.N.[Cl][Pt][Cl] [Cisplatin, cis-dichlorodiammine platinum(II), reference compound]
## Output 1
